Test system: Plasmodium falciparum
test-details: Calibr Malaria Delayed Death Assay SOP
Assay type: functional, organism-based
Design: scale not given: in the data most compounds retested in dose-response had high values
condition-notes: concentration 4.99e-06 (unit not given; other assays of the set use mol/L)
Out of some 38,000 compounds screened, about 1,200 (3.2%) showed an effect of 50% or more. The median lay at about -58%. Many of the other results were omitted from the sample, so strong results are more common in it than they were.
Classes are defined on Percent Effect with ranges low group (below -50%), middle group (-50% to below 10%), high group (10% or more)

The examples below pair each entry with its known result.
- compound: "CN(C)C(=O)N1C[C@@H]2CC[C@H](C1)N(C/C=C/c1ccc(F)cc1)C2"
  category: "high group"
- compound: "CCN1CCN(C2CCN(Cc3nnc(C(C)C)o3)CC2)C1=O"
  category: "low group"
- compound: "CN(C(=O)Nc1nncs1)C1CCN(c2ccccc2Cl)C1=O (stereo unspecified)"
  category: "middle group"

Q: Please classify: Cc1nc(C)n(CC2CCCN(Cc3ncc(C(C)(C)C)o3)C2)n1 (stereo unspecified)
Result: low group

Q: Please classify: CC(NC(=O)NCCCN1CCCC1=O)c1ccc(Cl)s1 (stereo unspecified)
Result: middle group

Q: Please classify: `CCCNC(=O)CCNc1cncc(-n2nc(C)cc2C)n1`
Result: low group

Q: Please classify: `COCCC1(CNC(=O)Nc2ccnc(C)c2)CCCC1`
Result: high group

Q: Please classify: `N[C@H]1CN(S(=O)(=O)c2ccccc2)C[C@@H]1C1CC1`
Result: middle group

Q: Please classify: `O=C(C[C@@H]1COC[C@H]2CN(Cc3cccnc3)C[C@@H]12)N1CCCC1.O=C(O)C(F)(F)F.O=C(O)C(F)(F)F`
Result: low group

---

Tested on: Plasmodium falciparum
test-details: Calibr Malaria Delayed Death Assay SOP
Type: functional, organism-based
Set-up: scale not given: in the data most compounds retested in dose-response had high values
condition-notes: concentration 4.99e-06 (unit not given; other assays of the set use mol/L)
The whole screen tested about 38,000 compounds, of which about 1,200 (3.2%) showed an effect of 50% or more. The median lay at about -58%. Only a selection was taken, and strong results are over-represented in it overall.
Examples of molecules with documented Percent Effect follow.
Form entry: value (%) — number only.

- molecule: "CCn1nnc2c1C(COCCN(C)C)CN(Cc1ccco1)C2.O=C(O)C(F)(F)F.O=C(O)C(F)(F)F (stereo not given)"
  output-unit: "%"
  Percent Effect: -73.97
- molecule: "CN(C)C(=O)c1cnc2n1CCN(Cc1cccc(C#N)c1)C2.O=C(O)C(F)(F)F"
  output-unit: "%"
  Percent Effect: -58.91
- molecule: "N#Cc1cccc(CN2CCn3cc(Cn4cccn4)nc3C2)c1.O=C(O)C(F)(F)F.O=C(O)C(F)(F)F"
  output-unit: "%"
  Percent Effect: 78.59
- molecule: "Cc1cc(NC(=O)C2CN(Cc3ccccc3)CCO2)ccn1 (stereo not given)"
  output-unit: "%"
  Percent Effect: -48

Please find the next molecule below.
Q: Check the records and state Percent Effect for `COc1cc(S(=O)(=O)N2CCc3cc(Br)ccc32)cc(C(=O)O)c1OC`
Result: -66.42

---

System: Plasmodium falciparum
test-details: Calibr Malaria Delayed Death Assay SOP
Assay type: functional, organism-based
Parameters: scale not given: in the data most compounds retested in dose-response had high values
condition-notes: concentration 4.99e-06 (unit not given; other assays of the set use mol/L)
About 1,200 (3.2%) of roughly 38,000 compounds showed an effect of 50% or more. The median lay at about -58%. This excerpt belongs to a sample that is enriched for strong results.
Examples of compounds with documented Percent Effect follow.
Form entry: value (%) — number only.

Some compounds with known Percent Effect results, for comparison:
- compound: "Fc1ccccc1OC1CCN(CCn2cc3ccccc3n2)CC1"
  Percent Effect [%]: -71.75
- compound: "Cc1nc(CNC(=O)NCC(O)c2ccc(F)c(F)c2)cs1 (stereo unspecified)"
  Percent Effect [%]: -178.5
- compound: "Cc1nc(C2CCCN2C(=O)CCOCc2ccccc2)no1 (stereo unspecified)"
  Percent Effect [%]: -117.2

Please find the next compound below.
Q: Check the records and state Percent Effect for Cc1csc(CNC(=O)NCC(O)c2ccc(F)c(F)c2)n1 (stereo unspecified)
Result: 2.8
